Assay: Half life in Wistar rat plasma at 5 mg/kg, ip administered as bolus dose measured after 5 to 360 mins by LC-MS/MS analysis
Assay type: ADME, organism-based
Settings: time 5-360 min
measurementLabel: half-life (h)
Numeric only. Scale: h

Problem: Query: half-life; subject: C1=CCC(c2cccnc2)NC1 (stereo unspecified)
Solution: 1.39

###

Assay: Tmax in C57BL/6 brain at 2 mg/kg, ip measured after 3 to 240 mins by LC-MS/MS analysis
Format: ADME, organism-based
Settings: C57BL/6, mouse, time 3-240 min
measurementLabel: Tmax
State the value, then name its unit.

Problem: Query: Tmax; subject: C1=CCC(c2cccnc2)NC1 (stereo unspecified)
Solution: 7.2 min

Entry source: ChEMBL document CHEMBL5096164
